From: the kinase profiling compilation of Christmann-Franck et al. (2016)

Biological target: IRAK4 (human) (UniProt Q9NWZ3)
Sequence (Q9NWZ3 whole entry, looked up): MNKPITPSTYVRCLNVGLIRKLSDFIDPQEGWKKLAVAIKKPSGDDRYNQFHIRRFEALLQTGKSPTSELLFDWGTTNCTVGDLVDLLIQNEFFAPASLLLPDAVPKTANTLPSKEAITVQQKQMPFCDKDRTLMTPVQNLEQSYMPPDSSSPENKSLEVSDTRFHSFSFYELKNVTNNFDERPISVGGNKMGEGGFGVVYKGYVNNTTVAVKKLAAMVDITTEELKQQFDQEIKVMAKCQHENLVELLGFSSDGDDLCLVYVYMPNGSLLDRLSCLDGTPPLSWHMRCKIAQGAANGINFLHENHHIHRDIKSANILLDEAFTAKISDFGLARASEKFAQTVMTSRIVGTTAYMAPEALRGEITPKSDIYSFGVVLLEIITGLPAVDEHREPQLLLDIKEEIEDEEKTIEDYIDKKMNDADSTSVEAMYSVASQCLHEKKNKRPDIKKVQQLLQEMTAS
Experiment: radiometric filter-binding kinase assay
Conditions: compound 10.0 µM

smiles data | residual activity / %
N#Cc1c(C2CCNCC2)cc(-c2c(O)cccc2OCC2CC2)nc1N | 70
Cc1ccc(-c2ccc3c(ccc4sc5c(c43)NC[C@@H](C)NC5=O)n2)cn1 | 24
COC(=O)/C=C/C(=O)OC | 88
O=c1c(O)c(-c2ccc(O)c(O)c2)oc2cc(O)c(O)c(O)c12 | 46
NS(=O)(=O)OC[C@@H]1C[C@@H](n2ccc3c(N[C@H]4CCc5ccccc54)ncnc32)C[C@@H]1O | 99
NC(=O)c1c(NC(=O)C2CC2)sc2c1CCCC2 | 28

* * *

Molecular target: MAPK9 (human)
Test: radiometric filter-binding kinase assay
Details: compound 10.0 µM
residual activity values for the molecules below.

molecule | residual activity [%]
COc1ccc2c(c1)c1c3c(c4c5ccccc5n(C)c4c1n2CC(O)CN(C)C)C(=O)NC3=O (stereo unspecified) | 35
O=C(O)c1ccc(-c2c[nH]c3ncc(-c4ccccc4)cc23)cc1C1CCCC1 | 9
Nc1cccc2c1CN(C1CCC(=O)NC1=O)C2=O (stereo unspecified) | 102
Cc1ccc2c(c1)C(=O)[C@@]1(O)CCN(c3ccccc3)C1=N2 | 88
Cc1ccc(=O)n(-c2ccccc2)c1 | 86
NC(=O)c1cc2c(-c3cccc(-c4ccccc4)c3)cnc(N)c2s1 | 33
Cc1ccc(Sc2cnc(Nc3cccc(Br)n3)s2)cc1C(=O)N1CCN(C(=O)CN)CC1 | 54
NC(=O)c1cc(-c2ccnc(NC3CCCCC3)c2)nc(N2CCNCC2)c1 | 35
Cc1cccc(Nc2nn(C)c3ncnc(N)c23)c1 | 117
Oc1ccc(/C=C/c2cc(O)cc(O)c2)cc1 | 86
NC(=O)c1c(NC(=O)C2CC2)sc2c1CCCC2 | 96

* * *

Target: STK3 (human)
Experiment: radiometric filter-binding kinase assay
Details: compound 0.01 µM

molecule | residual activity (%)
CNC(=O)C1[C@H]2O[C@@](C)([C@@H]1N)n1c3ccccc3c3c4c(c5c6ccccc6n2c5c31)C(=O)NC4 (stereo partly specified) | 18
CNc1nc(-c2ccc3c(N)n[nH]c3c2)cc(N2C[C@@H](C(=O)NC3CCCCC3)CC[C@H]2C)n1 | 116
COc1ccc(N(C(=O)Nc2c(C)cccc2C)c2cc(Nc3ccc(N4CCN(C)CC4)cc3)ncn2)c(OC)c1 | 112
O=C(Nc1nc2cc(C(F)(F)F)cc(NC3CC3)n2n1)c1cccnc1 | 99
COc1cc(O)c2c(c1)[C@H]1OC1C[C@H](O)[C@H](O)C(=O)/C=C\C[C@H](C)OC2=O (stereo partly specified) | 97
C/C(=C1/C(=O)Nc2ccc(NC(N)=O)cc21)c1ccc[nH]1 | 36

* * *

Target: RIPK2 (human) (UniProt O43353)
Sequence (O43353 whole entry, looked up): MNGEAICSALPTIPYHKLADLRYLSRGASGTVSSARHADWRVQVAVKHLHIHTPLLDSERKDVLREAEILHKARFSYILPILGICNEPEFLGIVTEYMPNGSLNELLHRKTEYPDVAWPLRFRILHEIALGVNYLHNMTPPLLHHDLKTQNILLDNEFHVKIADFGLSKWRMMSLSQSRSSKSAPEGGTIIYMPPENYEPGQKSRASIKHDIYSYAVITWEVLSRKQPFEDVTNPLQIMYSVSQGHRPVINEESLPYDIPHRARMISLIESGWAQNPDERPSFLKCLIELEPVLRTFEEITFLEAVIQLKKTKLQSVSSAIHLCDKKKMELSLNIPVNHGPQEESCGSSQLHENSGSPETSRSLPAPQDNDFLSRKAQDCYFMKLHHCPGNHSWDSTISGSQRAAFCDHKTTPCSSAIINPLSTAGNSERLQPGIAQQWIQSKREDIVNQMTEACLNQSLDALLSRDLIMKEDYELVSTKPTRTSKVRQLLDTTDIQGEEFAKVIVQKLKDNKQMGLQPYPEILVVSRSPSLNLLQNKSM
Test: radiometric filter-binding kinase assay
Settings: compound 10.0 µM
I would appreciate it if you labelled entries y when residual activity is 80% or higher, otherwise n.

compound | category
CCOC(=O)c1ccc(N2NC(=O)/C(=C/c3ccc([N+](=O)[O-])o3)C2=O)cc1 | y
Oc1ccc(/C=C/c2cc(O)cc(O)c2)cc1 | n
N#Cc1c(O)c2c(-c3ccc(-c4ccccc4O)cc3)csc2[nH]c1=O | y
Cc1ccc(-c2ccc3c(ccc4sc5c(c43)NC[C@@H](C)NC5=O)n2)cn1 | n
O=c1c(O)c(-c2ccc(O)c(O)c2)oc2cc(O)c(O)c(O)c12 | n
CC(C)C[C@H](NC(=O)CNC(=O)c1cc(Cl)ccc1Cl)B1OC(=O)CC(CC(=O)O)(C(=O)O)O1 (stereo not given in full) | y
NC(=O)c1cc2c(-c3cccc(-c4ccccc4)c3)cnc(N)c2s1 | n
COc1cc2ncn(-c3cc(OCc4ccccc4S(C)(=O)=O)c(C#N)s3)c2cc1OC | n
CC(C)(C#N)c1ccc(N2C(=O)OCc3cnc4ccc(-c5cnc6ccccc6c5)cc4c32)cc1 | n
O=C(N[C@@H](COc1ccc2[nH]c(=O)[nH]c2c1)c1ccccc1)c1cccn(Cc2ccc(F)c(F)c2)c1=O | y
O=C(NOCC(O)CO)c1ccc(F)c(F)c1Nc1ccc(I)cc1Cl (stereo not given) | y
NC1(c2ccc(-c3nc4ccn5c(=O)[nH]nc5c4cc3-c3ccccc3)cc2)CCC1 | n
NC(=O)c1c(NC(=O)C2CC2)sc2c1CCCC2 | n
N#Cc1c(C2CCNCC2)cc(-c2c(O)cccc2OCC2CC2)nc1N | n
Cc1ccc(=O)n(-c2ccccc2)c1 | y
NS(=O)(=O)OC[C@@H]1C[C@@H](n2ccc3c(N[C@H]4CCc5ccccc54)ncnc32)C[C@@H]1O | y
CCCCCc1ccc(/C=C/[C@H](O)[C@@H](CO)NC)cc1 | y
CCn1c(-c2nonc2N)nc2cncc(CNC3CCNCC3)c21 | n
CCCC(CCC)C(=O)O | y
O=C(NOC[C@H](O)CO)c1ccc(F)c(F)c1Nc1ccc(I)cc1Cl | y
O=C(Nc1cccnc1)c1cc(-c2ccnc(F)c2)ccc1OCc1ccccc1 | n
CNc1nc(-c2ccc3c(N)n[nH]c3c2)cc(N2C[C@@H](C(=O)NC3CCCCC3)CC[C@H]2C)n1 | y
O=C(Nc1ccccc1-c1cn2c(CN3CCNCC3)csc2n1)c1cnc2ccccc2n1 | y
NC(=O)c1ccc(-c2ccc(Oc3cncc4sc(-c5nn[nH]n5)cc34)cc2)cc1 | n
O=C(O)c1cc(N=Nc2ccc(S(=O)(=O)Nc3ccccn3)cc2)ccc1O | y
c1ccc2c(-c3cnn4cc(-c5ccc(N6CCNCC6)cc5)cnc34)ccnc2c1 | n
Cc1ccc(Sc2cnc(Nc3cccc(Br)n3)s2)cc1C(=O)N1CCN(C(=O)CN)CC1 | n
Cc1ccc2c(c1)C(=O)[C@@]1(O)CCN(c3ccccc3)C1=N2 | y
C=CC(=O)N1CCC[C@@H](n2nc(-c3ccc(Oc4ccccc4)cc3)c3c(N)ncnc32)C1 | n
Nc1cccc2c1CN(C1CCC(=O)NC1=O)C2=O (stereo not given) | y
Cc1nc(-c2ccc(OCC(C)C)c(C#N)c2)sc1C(=O)O | y
CCNc1nc(Nc2cc(F)c(C(=O)N3CCOCC3)cc2OC)ncc1C(F)(F)F | n
FC(F)(F)c1ccc(-c2ccc(Oc3cncc4sc(-c5nn[nH]n5)cc34)cc2)cc1 | n
CN1C(=O)[C@@H](Cc2c[nH]c3ccccc23)NC1=S | y
O=S(=O)(c1ccc(F)c2nonc12)N1CCN(c2ncc(C(F)(F)F)cc2Cl)CC1 | y
CC1=C(CO)C(=O)O[C@@H]([C@@H](C)[C@H]2CC[C@H]3[C@@H]4C[C@H]5O[C@]56[C@@H](O)C=CC(=O)[C@]6(C)C4CC[C@]23C)C1 (stereo not given in full) | y
COC(=O)/C=C/C(=O)OC | y

* * *

Biological target: IRAK1 (human) (UniProt P51617)
Sequence (P51617 whole entry, looked up): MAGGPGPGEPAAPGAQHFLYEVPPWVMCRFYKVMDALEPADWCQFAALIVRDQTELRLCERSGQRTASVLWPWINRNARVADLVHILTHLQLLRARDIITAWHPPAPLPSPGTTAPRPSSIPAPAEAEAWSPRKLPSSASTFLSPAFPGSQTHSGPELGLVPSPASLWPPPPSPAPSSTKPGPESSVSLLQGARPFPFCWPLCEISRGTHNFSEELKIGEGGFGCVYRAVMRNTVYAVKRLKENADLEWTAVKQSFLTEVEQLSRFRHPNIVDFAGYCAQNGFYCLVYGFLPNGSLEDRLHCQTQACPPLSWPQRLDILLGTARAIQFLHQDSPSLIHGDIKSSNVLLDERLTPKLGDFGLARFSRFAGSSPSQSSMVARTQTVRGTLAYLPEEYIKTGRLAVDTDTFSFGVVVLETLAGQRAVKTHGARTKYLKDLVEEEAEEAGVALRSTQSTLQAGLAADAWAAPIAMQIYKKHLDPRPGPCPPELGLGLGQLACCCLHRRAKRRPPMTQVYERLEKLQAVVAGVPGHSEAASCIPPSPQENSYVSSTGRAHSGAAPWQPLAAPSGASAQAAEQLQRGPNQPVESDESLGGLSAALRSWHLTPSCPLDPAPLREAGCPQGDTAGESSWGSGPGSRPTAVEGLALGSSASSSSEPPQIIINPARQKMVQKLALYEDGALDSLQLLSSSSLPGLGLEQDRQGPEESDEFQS
Assay: radiometric filter-binding kinase assay
Conditions: compound 0.01 µM
residual activity values for the molecules below.

molecule | residual activity, %
CNC(=O)C1[C@H]2O[C@@](C)([C@@H]1N)n1c3ccccc3c3c4c(c5c6ccccc6n2c5c31)C(=O)NC4 (some centres undefined) | 15
COc1cc(O)c2c(c1)[C@H]1OC1C[C@H](O)[C@H](O)C(=O)/C=C\C[C@H](C)OC2=O (some centres undefined) | 97
O=C(Nc1nc2cc(C(F)(F)F)cc(NC3CC3)n2n1)c1cccnc1 | 94
COc1ccc(N(C(=O)Nc2c(C)cccc2C)c2cc(Nc3ccc(N4CCN(C)CC4)cc3)ncn2)c(OC)c1 | 98

* * *

residual activity values for the compounds below.
Molecular target: EPHB4 (human) (UniProt P54760)
Sequence (P54760 whole entry, looked up): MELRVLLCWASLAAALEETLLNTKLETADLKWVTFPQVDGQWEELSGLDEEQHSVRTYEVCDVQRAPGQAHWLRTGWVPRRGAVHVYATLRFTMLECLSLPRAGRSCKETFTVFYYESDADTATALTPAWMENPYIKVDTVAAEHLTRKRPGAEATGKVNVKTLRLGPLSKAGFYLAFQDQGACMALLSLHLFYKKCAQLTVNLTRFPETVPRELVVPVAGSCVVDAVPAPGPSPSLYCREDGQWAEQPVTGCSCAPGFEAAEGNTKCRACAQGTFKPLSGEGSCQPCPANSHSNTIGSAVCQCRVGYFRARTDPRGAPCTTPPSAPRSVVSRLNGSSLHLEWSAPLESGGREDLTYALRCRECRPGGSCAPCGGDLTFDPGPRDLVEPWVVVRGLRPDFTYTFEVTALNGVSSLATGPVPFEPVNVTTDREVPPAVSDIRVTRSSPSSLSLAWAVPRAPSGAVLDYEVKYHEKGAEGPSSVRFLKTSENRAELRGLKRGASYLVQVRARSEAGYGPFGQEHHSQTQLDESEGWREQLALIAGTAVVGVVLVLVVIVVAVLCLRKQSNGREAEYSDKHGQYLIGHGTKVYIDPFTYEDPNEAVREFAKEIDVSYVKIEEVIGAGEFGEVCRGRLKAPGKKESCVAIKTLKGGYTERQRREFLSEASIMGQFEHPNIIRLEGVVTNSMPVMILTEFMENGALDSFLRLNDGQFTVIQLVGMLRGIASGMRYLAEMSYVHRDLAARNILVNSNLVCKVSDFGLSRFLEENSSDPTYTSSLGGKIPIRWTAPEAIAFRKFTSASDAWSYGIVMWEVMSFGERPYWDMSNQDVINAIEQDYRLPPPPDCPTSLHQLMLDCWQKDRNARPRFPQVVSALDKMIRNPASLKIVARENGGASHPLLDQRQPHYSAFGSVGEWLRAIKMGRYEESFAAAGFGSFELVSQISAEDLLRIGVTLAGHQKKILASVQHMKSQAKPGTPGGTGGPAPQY
Assay: radiometric filter-binding kinase assay
Conditions: compound 10.0 µM
value kind: residual activity (%)

smiles data | experimental value
COc1cc2ncn(-c3cc(OCc4ccccc4S(C)(=O)=O)c(C#N)s3)c2cc1OC | 82
NC(=O)c1cc2c(-c3cccc(-c4ccccc4)c3)cnc(N)c2s1 | 19
O=c1c(O)c(-c2ccc(O)c(O)c2)oc2cc(O)c(O)c(O)c12 | 56
FC(F)(F)c1ccc(-c2ccc(Oc3cncc4sc(-c5nn[nH]n5)cc34)cc2)cc1 | 110
NC1(c2ccc(-c3nc4ccn5c(=O)[nH]nc5c4cc3-c3ccccc3)cc2)CCC1 | 86

* * *

Biological target: PRKCZ (human)
Experiment: radiometric filter-binding kinase assay
Settings: compound 10.0 µM

compound | assayed system | residual activity [%]
CCOC(=O)c1ccc(N2NC(=O)/C(=C/c3ccc([N+](=O)[O-])o3)C2=O)cc1 | PRKCZ (human) | 112
O=C(NOC[C@H](O)CO)c1ccc(F)c(F)c1Nc1ccc(I)cc1Cl | PRKCZ (human) | 104
NS(=O)(=O)OC[C@@H]1C[C@@H](n2ccc3c(N[C@H]4CCc5ccccc54)ncnc32)C[C@@H]1O | PRKCZ (human) | 96
NCC(=O)Nc1ccc(-n2nc(C(F)(F)F)cc2-c2ccc3c(ccc4ccccc43)c2)cc1 | PRKCZ (human) | 61
CCCC(CCC)C(=O)O | PRKCZ (human) | 101
O=C1NC(=S)N[C@@H]1Cc1c[nH]c2ccccc12 | PRKCZ (human) | 83
O=C(N[C@@H](COc1ccc2[nH]c(=O)[nH]c2c1)c1ccccc1)c1cccn(Cc2ccc(F)c(F)c2)c1=O | PRKCZ (human) | 88
C=CC(=O)N1CCC[C@@H](n2nc(-c3ccc(Oc4ccccc4)cc3)c3c(N)ncnc32)C1 | PRKCZ (human) | 81
Cc1ccc2c(c1)C(=O)[C@@]1(O)CCN(c3ccccc3)C1=N2 | PRKCZ (human) | 108
COc1cc2ncn(-c3cc(OCc4ccccc4S(C)(=O)=O)c(C#N)s3)c2cc1OC | PRKCZ (human) | 95
O=S(=O)(c1ccc(F)c2nonc12)N1CCN(c2ncc(C(F)(F)F)cc2Cl)CC1 | PRKCZ (human) | 94
CC(C)C[C@H](NC(=O)CNC(=O)c1cc(Cl)ccc1Cl)B1OC(=O)CC(CC(=O)O)(C(=O)O)O1 (stereo partly specified) | PRKCZ (human) | 95
O=C(Nc1ccccc1-c1cn2c(CN3CCNCC3)csc2n1)c1cnc2ccccc2n1 | PRKCZ (human) | 103
N#Cc1c(O)c2c(-c3ccc(-c4ccccc4O)cc3)csc2[nH]c1=O | PRKCZ (human) | 96
FC(F)(F)c1ccc(-c2ccc(Oc3cncc4sc(-c5nn[nH]n5)cc34)cc2)cc1 | PRKCZ (human) | 60
COc1cc(C(=O)N2CCOCC2)c(F)cc1Nc1ncc(C(F)(F)F)c(NC2CC2)n1 | PRKCZ (human) | 86
NC(=O)c1ccc(-c2ccc(Oc3cncc4sc(-c5nn[nH]n5)cc34)cc2)cc1 | PRKCZ (human) | 67
COC(=O)/C=C/C(=O)OC | PRKCZ (human) | 89
O=C(NOCC(O)CO)c1ccc(F)c(F)c1Nc1ccc(I)cc1Cl (stereo unspecified) | PRKCZ (human) | 91
NC(=O)c1cc(-c2ccnc(NC3CCCCC3)c2)nc(N2CCNCC2)c1 | PRKCZ (human) | 84
Cc1ccc(=O)n(-c2ccccc2)c1 | PRKCZ (human) | 97
